Kd reference
- TARGET: cynomolgus serum albumin (cynomolgus, UniProt A2V9Z4 25-608)
- Sequence (A2V9Z4 25-608 limits assumed): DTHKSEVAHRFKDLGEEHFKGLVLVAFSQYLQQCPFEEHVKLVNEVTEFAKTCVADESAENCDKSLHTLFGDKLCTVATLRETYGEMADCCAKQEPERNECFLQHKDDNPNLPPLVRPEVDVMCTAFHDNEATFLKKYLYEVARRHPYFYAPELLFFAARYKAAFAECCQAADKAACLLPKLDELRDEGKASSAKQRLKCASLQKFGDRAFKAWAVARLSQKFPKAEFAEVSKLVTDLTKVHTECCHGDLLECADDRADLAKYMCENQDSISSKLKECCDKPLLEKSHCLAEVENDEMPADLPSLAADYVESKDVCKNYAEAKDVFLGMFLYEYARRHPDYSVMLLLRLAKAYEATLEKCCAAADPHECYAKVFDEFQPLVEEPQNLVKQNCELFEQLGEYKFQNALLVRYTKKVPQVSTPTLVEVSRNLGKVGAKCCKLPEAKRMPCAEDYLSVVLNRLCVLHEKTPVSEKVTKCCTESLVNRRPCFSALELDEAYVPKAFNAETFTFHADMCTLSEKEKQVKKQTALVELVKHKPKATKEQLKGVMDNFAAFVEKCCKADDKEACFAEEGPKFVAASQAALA
- ASSAY OVERVIEW: Octet HTX (ForteBio), HCAb on AHC sensor, 1:1 fit
Express it in nM; write the number only.

# lookup: Kd of CNG-HSA-101 (VHH) VHH: KVQLVESGGGLVQPGGSLRLSCAASGFTFSSFGMTWVRQAPGKGLEWVSSISGSGSDTLYADSVRGRFTISRDNSKNTLYLQMNSLRAEDTAVYYCTIGGSLSPSSQGTLVTVSS
3.58

Thanks! And CNG-HSA-105 (VHH) VHH: EVQLLESGGGLVQPGGSLRLSCAASGFVFSSFGMSWVRQAPGKGLEWVSSISGSGSDTLYADSVKGRFTISRDNSKNTLYLQMNSLRPEDTAVYYCTIGGSLSRSSQGTLVTVSS ?
12.7

Thanks! And CNG-HSA-106 (VHH) VHH: KVQLLESGGGLVQPGGSLRLSCAASGFTFSSFGMSWVRQAPGKGLEWVSSISGSGSDTLYADSVRGRFTISRDNSKNTLYLQMDSLRAEDTAVYYCTIGGSRSISSQGTLVTVSS ?
14.4

***
# lookup: Kd of CNG-HSA-120 (VHH) VHH: KVQLVESGGGLVQPGGSLRLSCAASGFTFSSFGMSWVRQAPGKGPEWVSSISGSGSDTLYADSVKGRFTISRDNSKNTLYLQMNSLRPEDTAVYYCTIGGSLKQSSQGTLVTVSS
2.6

Thanks! And CNG-HSA-115 (VHH) VHH: KVQLVESGGGLVQPGNSLRLSCAASGFTFSSFGMGWVRQAPGKGLEWVSSISGSGSDTLYAPSVKGRFTISRDNSKNTLYLQMNSLRPEDTAVYYCTFAGSLSRSSQGTLVTVSS ?
3.37

Thanks! And CNG-HSA-110 (VHH) VHH: KVQLVESGGGLVQPGNSLRLSCAASGFTFSSFGMSWVRQAPGKGLEWVSSISGSGGDTLYADSAKGRFTISRDNSKNTLYLQMNSLRPEDTAVYYCTIGGSLSRSSQGTLVTVSS ?
5.2

Thanks! And CNG-HSA-117 (VHH) VHH: KVQLVESGGGLVQPGNSLRLSCAASGFTFSSFGMSWVRQAPGKGLEWVSSISGSGSDTLYADSVKGRFTISRDNSKNTLYLQMNSLRAEDTAVYYCTIGGSLTRSSQGTLVTVSS ?
4.05

Thanks! And CNG-HSA-103 (VHH) VHH: KVQLVESGGGLVQPGGSLRLSCAASGFTFSSFGMTWVRQAPGKGLEWVSSISGSGSDTLYADSVRGRFTISRDNSKNTLYLQMNSLRPEDTAVYYCTIGGSLSPSSQGTLVTVSS ?
3.62
